B1: glmS ribozyme (parent)
chain: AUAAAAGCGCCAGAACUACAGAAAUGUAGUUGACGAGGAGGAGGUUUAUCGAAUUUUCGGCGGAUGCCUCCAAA

Variants of: B1
TEST SUMMARY: self-cleavage kobs at 640 uM GlcN6P; higher = faster cleavage; RNA array
CONDITION NOTES: with glucosamine-6-phosphate
Fewer inactive variants are shown than the library holds.
RESULT TYPE: self-cleavage kobs at 640 uM GlcN6P

>  <SEQUENCE VARIANT>
G9U A36U

>  <RESULT TYPE>
self-cleavage kobs at 640 uM GlcN6P

>  <ASSAY VALUE>
< 1e-05 s⁻¹

$$$$
>  <SEQUENCE VARIANT>
G35C C71G

>  <RESULT TYPE>
self-cleavage kobs at 640 uM GlcN6P

>  <ASSAY VALUE>
< 1e-05 s⁻¹

$$$$
>  <SEQUENCE VARIANT>
A6G U31G U45A A53G C61A G66C

>  <RESULT TYPE>
self-cleavage kobs at 640 uM GlcN6P

>  <ASSAY VALUE>
< 1e-05 s⁻¹

$$$$
>  <SEQUENCE VARIANT>
U45G C67A

>  <RESULT TYPE>
self-cleavage kobs at 640 uM GlcN6P

>  <ASSAY VALUE>
0.00177 s⁻¹

$$$$
>  <SEQUENCE VARIANT>
A6G G13A

>  <RESULT TYPE>
self-cleavage kobs at 640 uM GlcN6P

>  <ASSAY VALUE>
< 1e-05 s⁻¹

$$$$

For reference, reported self-cleavage kobs at 640 uM GlcN6P for G9U G41C A42U G44A stands at < 1e-05 s⁻¹

Record summary for C11A U30C A53C C71U : reported self-cleavage kobs at 640 uM GlcN6P = < 1e-05 s⁻¹

The variant C58U C67U C68U C71U showed self-cleavage kobs at 640 uM GlcN6P equal to 0.000646 s⁻¹

U31G A33C C50U U56C A64G has a reported self-cleavage kobs at 640 uM GlcN6P of < 1e-05 s⁻¹

GET /value?item= A36C G41A &field=self-cleavage kobs at 640 uM GlcN6P returns < 1e-05 s⁻¹
